Data provenance: paper PMC9078534

# TEST METHOD NOTES: Transport of SAL across normoxic and hypoxic Caco-2 monolayers (Papp)
# Assay type: in vitro ADME, human
# CONDITION CONTEXT: human, Caco-2, hypoxic Caco-2 monolayer model (1% O2, 24 h), SAL 10 μM
ASSAY ENDPOINT: Papp A→B at 180 min, 10 μM (×10⁻⁶ cm/s)

compound="OC[C@H]1O[C@@H](OCCc2ccc(O)cc2)[C@H](O)[C@@H](O)[C@@H]1O [SAL, salidroside]" observed_value=1.77

====

# TEST METHOD NOTES: Renal clearance (CLr) of SAL and PAH in hypoxic and normoxic rats
# Format: in vivo
# CONDITION CONTEXT: rat, plasma and urine, iv, 444 ug/kg, hypoxic rats, SAL 444 μg kg^−1 i.v. bolus
ASSAY ENDPOINT: CL renal (mL/min/kg)

compound="OC[C@H]1O[C@@H](OCCc2ccc(O)cc2)[C@H](O)[C@@H](O)[C@@H]1O [SAL, salidroside]" observed_value=0.497

====

# TEST METHOD NOTES: in vivo
# CONDITION CONTEXT: male, SD, rat, po, 4.44 mg/kg, Tmax
ASSAY ENDPOINT: Tmax

compound="OC[C@H]1O[C@@H](OCCc2ccc(O)cc2)[C@H](O)[C@@H](O)[C@@H]1O [SAL, salidroside]" observed_value="36 min"

====

# TEST METHOD NOTES: Transport of SAL across normoxic and hypoxic Caco-2 monolayers (Papp)
# Format: in vitro ADME, human
# CONDITION CONTEXT: human, Caco-2, normoxic Caco-2 monolayer model, SAL 10 μM
ASSAY ENDPOINT: Papp A→B at 180 min, 10 μM (nm/s)

molecule="OC[C@H]1O[C@@H](OCCc2ccc(O)cc2)[C@H](O)[C@@H](O)[C@@H]1O [SAL, salidroside]" observed_value=8.8

====

# TEST METHOD NOTES: Transport of SAL across normoxic and hypoxic Caco-2 monolayers (Papp)
# Type: in vitro ADME, human
# CONDITION CONTEXT: human, Caco-2, normoxic Caco-2 monolayer model, SAL 10 μM
ASSAY ENDPOINT: Papp B→A at 180 min, 10 μM (×10⁻⁶ cm/s)

compound="OC[C@H]1O[C@@H](OCCc2ccc(O)cc2)[C@H](O)[C@@H](O)[C@@H]1O [SAL, salidroside]" observed_value=0.088

====

# TEST METHOD NOTES: in vivo
# CONDITION CONTEXT: male, SD, rat, po, 4.44 mg/kg, Cmax
ASSAY ENDPOINT: Cmax (µg/mL)

compound="OC[C@H]1O[C@@H](OCCc2ccc(O)cc2)[C@H](O)[C@@H](O)[C@@H]1O [SAL, salidroside]" observed_value=2.07

====

# TEST METHOD NOTES: Renal clearance (CLr) of SAL and PAH in hypoxic and normoxic rats
# Format: in vivo
# CONDITION CONTEXT: rat, plasma and urine, iv, 30 mg/kg, hypoxic rats, PAH 30 mg kg^−1 i.v. bolus
ASSAY ENDPOINT: CL renal (L/h/kg)

molecule="Nc1ccc(C(=O)NCC(=O)O)cc1 [PAH, p-aminohippuric acid, reference compound]" assay_endpoint="CL renal" reading_unit=L/h/kg observed_value=0.0491

====

# TEST METHOD NOTES: Renal clearance (CLr) of SAL and PAH in hypoxic and normoxic rats
# Type: in vivo
# CONDITION CONTEXT: rat, plasma and urine, iv, 444 ug/kg, normoxic rats, SAL 444 μg kg^−1 i.v. bolus
ASSAY ENDPOINT: CL renal (mL/min/kg)

molecule="OC[C@H]1O[C@@H](OCCc2ccc(O)cc2)[C@H](O)[C@@H](O)[C@@H]1O [SAL, salidroside]" observed_value=1.77
